From: PubChem BioAssay

# System: Human papillomavirus type 1a protein E7 (residues 44-93)
# Test Summary: HPV1a E7 fragment binders on microarrays, primary screen, biochemical, small-molecule microarray, residues 44-93, 635 nm fluorescence (AID 1108);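 further: E7 fragment applied at 1 µg/mL in TBST for 1 h at 4 C; score combines spot fluorescence with its signal to noise ratio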
# Condition Description: small-molecule microarray binding, fluorescence 635 nm; higher = more signal
Recorded composite z-score determines the group label, using lower (below -0.3), middle (-0.3 to below 0.5), upper (0.5 or more)

COc1ccc([Si](C)(C)[C@@H]2[C@@H](CCn3cc(CCO)nn3)O[C@]3(C(=O)N(Cc4ccc(N5C(=O)c6cccc7cccc5c67)cc4)c4ccccc43)[C@H]2C)cc1	middle
COc1ccc(C#Cc2ccc3c(c2)[C@]2(C(=O)N3)[C@H](c3ccc(O)cc3)N3[C@H](c4ccccc4)[C@H](c4ccccc4)OC(=O)[C@H]3[C@@H]2C(N)=O)cc1	upper
CCCCCN1CC=CC23O[C@@H]4/C=C\CCC(C)OC(=O)C4[C@H]2C(=O)N(CCCO)[C@@H]3C1=O (some centres undefined)	lower
C=CCNC(=O)[C@H]1[C@@H]2C(=O)O[C@@H](c3ccccc3)[C@@H](c3ccccc3)N2[C@@H](c2ccccc2OCCO)[C@]12C(=O)N(C(=O)OCCOC)c1ccc(C#CCCO)cc12	middle
CCCCC(=C=CC[C@@H](O)c1ccc(OCCO)cc1)C[C@@H](O)c1cc(Cl)cc(Cl)c1O	middle
COCCOC(=O)N1C(=O)[C@@]2(c3cc(C#CC4(O)CCCCCC4)ccc31)[C@H](c1ccccc1OCCO)N1[C@H](c3ccccc3)[C@H](c3ccccc3)OC(=O)[C@H]1[C@@H]2C(=O)Nc1nc2ccccc2s1	middle
C=C(/C(=C/C[C@H](OC(=O)c1ccncc1)c1cccc(OCCO)c1)c1cc(C(=O)OC)ccc1OC)C(C)C	middle
C=C[C@H](OC)[C@@H](OC(=O)Nc1ccc(OC)cc1)c1ccc(OC)c(O)c1	lower
O=C1c2ccccc2C(=O)c2cc([C@H]3Oc4ccccc4S(=O)(=O)N4CCC[C@@H]34)ccc21	lower
C=CCN1C(=O)[C@@]2(O[C@@H](CCO)[C@H]([Si](C)(C)c3ccc(OC)cc3)[C@H]2C)c2cc(N3C(=O)c4cccc5cccc3c45)ccc21	upper
COC(=O)C1=CC(CCCO)=CC(C2CC2)N(Cc2cc3c(cc2Br)OCO3)C=C1C(=O)OC (centres undefined)	upper
C=CCNC(=O)[C@@H]1[C@H]2C(=O)O[C@H](c3ccccc3)[C@H](c3ccccc3)N2[C@H](c2ccc(O)cc2)[C@@]12C(=O)Nc1ccc(C#Cc3ccc(OC)cc3)cc12	upper
CC(C)NC(=O)[C@@H]1c2ccccc2C(=O)N(Cc2cc(F)cc(C(F)(F)F)c2)[C@H]1c1ccc(CO)cc1	upper
